Would you mind telling me the reported IC50 of each entry?
Target: T1, G1 APOL1 (Homo sapiens, UniProt O14791, I384M/S342G)
T1 construct: expressed in transfected cells
Assay: Acute APOL1 Thallium Assay with inducible stable clones of HEK 293 cells
Format: cell-based
Conditions: HEK 293 T-Rex inducible stable clone expressing G1 APOL1; read-out: Thallium Assay (IC50)
Text: Acute APOL1 Thallium Assay with Inducible Stable Clones of HEK 293 Cells Apolipoprotein L1 (APOL1) proteins form potassium-permeable cation pores in the plasma membrane. APOL1 risk variants (G1 and G2) induce greater potassium flux than G0 in HEK293 cells. […] The increase of fluorescence in the assay represents the influx of T1+ into the cell specifically through the potassium channel (i.e. through APOL1 pores), providing a functional measurement of potassium channel/pore activity. […]

The examples below pair each entry with its known result.
| COMPOUND | TEST VALUE |
| --- | --- |
| NCC1(O)CC(c2c(-c3ccc(F)cc3)[nH]c3c(F)cc(F)cc23)C1 (centres unmarked) [Compound 427] | 0.25 to 1 µM |
| Fc1ccc(-c2[nH]c3c(F)cc(F)cc3c2C2CC(CNC3COC3)C2)cc1 (centres unmarked) [Compound 380] | 0.25 to 1 µM |
| Cc1cc(-c2[nH]c3c(F)cc(F)cc3c2C2CC(CN)C2)ccc1F (centres unmarked) [Compound 179] | < 0.25 µM |
| O=C(NC[C@H]1C[C@H](c2c(-c3ccc(F)cc3)[nH]c3c(F)cc(F)cc32)C1)C1(O)CC1 [Compound 283] | > 1 µM |
| CNCCC(=O)N[C@H]1C[C@@H](c2c(-c3ccc(F)cc3)[nH]c3c(F)cc(F)cc32)C1 [Compound 75] | 0.25 to 1 µM |

Hi, could you look up IC50 for each item in my list?
1. O=C(CCN1CCCC1)N[C@H]1C[C@H](c2c(-c3ccc(F)cc3)[nH]c3c(F)cc(F)cc32)C1 [Compound 109]
2. Cn1cnc(CC(=O)N[C@H]2C[C@H](c3c(-c4ccc(F)cc4)[nH]c4c(F)cc(F)cc43)C2)c1 [Compound 143]

1. > 1 µM
2. 0.25 to 1 µM

Hi, could you look up IC50 for each item in my list?
1. CN(CC(=O)NC[C@H]1C[C@@H](c2c(-c3ccc(F)cc3)[nH]c3c(F)cc(F)cc32)C1)S(C)(=O)=O [Compound 305]
2. CN(C1COC1)C1CC(c2c(-c3ccc(F)cc3)[nH]c3c(F)cc(F)cc23)C1 (centres unmarked) [Compound 24]

> 1 µM
> 1 µM

====

Would you mind telling me the reported pIC50 of each entry?
Molecular target: G1 APOL1 (Homo sapiens, UniProt O14791, I384M/S342G)
Construct: expressed in transfected cells
Assay: Acute APOL1 Thallium Assay with inducible stable clones of HEK 293 cells
Type: cell-based
Details: HEK 293 T-Rex inducible stable clone expressing G1 APOL1; read-out: Thallium Assay (IC50)
pIC50: −log10 of the molar value.

| MOLECULE | TESTED TARGET | pIC50 |
| --- | --- | --- |
| O=C(Cn1cnnc1)NC[C@H]1C[C@@H](c2c(-c3ccc(F)cc3)[nH]c3c(F)cc(F)cc32)C1 [Compound 307] | G1 APOL1 (Homo sapiens, UniProt O14791, I384M/S342G) | < 6.00 |
| O=S(=O)(NC[C@H]1C[C@H](c2c(-c3ccc(F)cc3)[nH]c3c(F)cc(F)cc32)C1)NC1(CO)CCC1 [Compound 355] | G1 APOL1 (Homo sapiens, UniProt O14791, I384M/S342G) | 6.00 to 6.60 |
| O=S(=O)(N[C@H]1C[C@@H](c2c(-c3ccc(F)cc3)[nH]c3c(F)cc(F)cc32)C1)C1CCOCC1 [Compound 86] | G1 APOL1 (Homo sapiens, UniProt O14791, I384M/S342G) | < 6.00 |
| CS(=O)(=O)CCC(=O)N[C@H]1C[C@H](c2c(-c3ccc(F)cc3)[nH]c3c(F)cc(F)cc32)C1 [Compound 119] | G1 APOL1 (Homo sapiens, UniProt O14791, I384M/S342G) | < 6.00 |

Hi, could you look up pIC50 for each item in my list?
1. CCS(=O)(=O)N[C@H]1C[C@@H](c2c(-c3ccc(F)cc3)[nH]c3c(F)cc(F)cc32)C1 [Compound 82]
2. Cc1cccc(-c2[nH]c3c(F)cc(F)cc3c2C2CC(N)C2)c1 (mixture of isomers) [Compound 5]

["< 6.00", "6.00 to 6.60"]

====

Target: G1 APOL1 (Homo sapiens, UniProt O14791, I384M/S342G)
Construct: expressed in transfected cells
Sequence (O14791 28-398 S342G/I384M): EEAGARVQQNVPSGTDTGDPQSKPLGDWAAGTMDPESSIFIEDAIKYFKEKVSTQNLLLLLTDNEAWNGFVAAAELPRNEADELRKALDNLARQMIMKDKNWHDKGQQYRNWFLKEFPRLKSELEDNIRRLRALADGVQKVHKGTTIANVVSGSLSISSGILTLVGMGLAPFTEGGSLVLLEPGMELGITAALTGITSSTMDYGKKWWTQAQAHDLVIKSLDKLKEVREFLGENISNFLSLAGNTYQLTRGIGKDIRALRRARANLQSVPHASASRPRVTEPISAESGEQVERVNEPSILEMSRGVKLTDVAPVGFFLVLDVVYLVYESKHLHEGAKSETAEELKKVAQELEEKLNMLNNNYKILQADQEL
Test: Acute APOL1 Thallium Assay with inducible stable clones of HEK 293 cells
Assay type: cell-based
Conditions: HEK 293 T-Rex inducible stable clone expressing G1 APOL1; read-out: Thallium Assay (IC50)
PARAMETER: IC50

The examples below pair each entry with its known result.
| MOLECULE | TESTED TARGET | TEST VALUE |
| --- | --- | --- |
| Cn1nccc1CC(=O)N[C@H]1C[C@H](c2c(-c3ccc(F)cc3)[nH]c3c(F)cc(F)cc32)C1 | G1 APOL1 (Homo sapiens, UniProt O14791, I384M/S342G) | > 1000 nM |
| CNC(=O)c1noc(CNS(=O)(=O)NC[C@H]2C[C@H](c3c(-c4ccc(F)cc4)[nH]c4c(F)cc(F)cc43)C2)n1 | G1 APOL1 (Homo sapiens, UniProt O14791, I384M/S342G) | 250 to 1000 nM |
| CC1(C(=O)NC[C@H]2C[C@@H](c3c(-c4ccc(F)cc4)[nH]c4c(F)cc(F)cc43)C2)CC(=O)C1 | G1 APOL1 (Homo sapiens, UniProt O14791, I384M/S342G) | > 1000 nM |
| NC(=O)CNC(=O)N[C@H]1C[C@H](c2c(-c3ccc(F)cc3)[nH]c3c(F)cc(F)cc32)C1 | G1 APOL1 (Homo sapiens, UniProt O14791, I384M/S342G) | 250 to 1000 nM |
| NCC1CC(c2c(-c3ccc(OC(F)(F)F)cc3)[nH]c3c(F)cc(F)cc23)C1 (stereo not shown) | G1 APOL1 (Homo sapiens, UniProt O14791, I384M/S342G) | < 250 nM |

Hi, could you look up IC50 for each item in my list?
1. O=C(NC[C@H]1C[C@H](c2c(-c3ccc(F)cc3)[nH]c3c(F)cc(F)cc32)C1)c1ncccn1
2. OCC1(NCC2CC(c3c(-c4ccc(F)cc4)[nH]c4c(F)cc(F)cc34)C2)CC1 (stereo not shown)
3. NCCCNCC1CC(c2c(-c3ccc(F)cc3)[nH]c3c(F)cc(F)cc23)C1 (stereo not shown)
4. Cc1nccn1CC(=O)N[C@H]1C[C@H](c2c(-c3ccc(F)cc3)[nH]c3c(F)cc(F)cc32)C1
5. O=C(NC[C@H]1C[C@H](c2c(-c3ccc(F)cc3)[nH]c3c(F)cc(F)cc32)C1)[C@H]1COCCN1
6. O=c1[nH]c2ccc(S(=O)(=O)N[C@H]3C[C@H](c4c(-c5ccc(F)cc5)[nH]c5c(F)cc(F)cc54)C3)cc2[nH]1
7. O=C(CO)N[C@H]1C[C@H](c2c(-c3ccc(F)cc3)[nH]c3c(F)cc(F)cc32)C1 [Compound 429]
8. CNCCC(=O)N[C@H]1C[C@H](c2c(-c3ccc(F)cc3)[nH]c3c(F)cc(F)cc32)C1

["> 1000 nM", "> 1000 nM", "> 1000 nM", "> 1000 nM", "> 1000 nM", "> 1000 nM", "250 to 1000 nM", "250 to 1000 nM"]

Hi, could you look up IC50 for each item in my list?
1. NCC1CC(c2c(-c3ccc(F)cc3)[nH]c3c(F)cc(C(F)(F)F)cc23)C1 (stereo not shown)
2. OCCNCC1CC(c2c(-c3ccc(F)cc3)[nH]c3c(F)cc(F)cc23)C1 (stereo not shown)
3. O=c1[nH]c2ccc(S(=O)(=O)NC[C@H]3C[C@H](c4c(-c5ccc(F)cc5)[nH]c5c(F)cc(F)cc54)C3)cc2[nH]1

1. 250 to 1000 nM
2. < 250 nM
3. > 1000 nM
